- measurement.target: SpNbp2
- measurement.notes: SPOT peptide array binding signal intensity (averaged, normalized) (arbitrary units (background-subtracted, floor 0; scale differs between SH3 domains)); higher = stronger binding of the SH3 domain to the peptide
endpoint: SPOT peptide array binding signal intensity
Provide a numeric answer; units are not to be included.

| binder | numeric.value |
| --- | --- |
| NFLRLLIGLPSQNEL | 52.5 |
| NFKRLLPRDPSEKSS | 44 |
| AATTSTPPLPRRRAT | 1.5 |
| PSRRAPLQLPQLVNK | 3 |
| KKAPPPVVKPKPRNF | 43 |
| WTQRRGPLVVYAEDN | 2 |
| APPLPPTAPPPPSLP | 6.5 |
| RPKRRAPPPVPKKPS | 173 |
| ILARAILTIPRVLDK | 207 |
| VYTRTAFQIPGDDKI | 7 |

Recorded result, RTRRRPPPPPIPSTQ , SPOT peptide array binding signal intensity: 29.5

// recorded SPOT peptide array binding signal intensity for QLLNPNRRAPRRPLS : 440
